Target: Mitogen-activated protein kinase 7 (Homo sapiens)
Experiment: ERK5 transactivation activators in reporter cells, primary screen, cell-based, HTS (AID 1508626);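 further: luciferase driven by Gal4-ERK5 fusion binding five Gal4 sites before minimal TATA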
Conditions: HeLa Gal4-ERK5 transactivation, 18 h, at 5 µM
Activity calls are given as the source filed them.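 How the source made its calls: active means luciferase signal above three times the same-plate solvent-only control wells; inactive means the rest.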
Permitted responses: T = active, F = inactive

NNCCc1ccccc1	F
N[C@@H]1CONC1=O	F
O=C1C(CCS(=O)c2ccccc2)C(=O)N(c2ccccc2)N1c1ccccc1 (stereo unspecified)	F
Cc1ncc([N+](=O)[O-])n1CC(C)O (stereo unspecified)	F
CC(C)(C)NC[C@H](O)COc1nsnc1N1CCOCC1	F
Nc1nc2c(ncn2COCCO)c(=O)[nH]1	F

Challenge: Please state the recorded outcome for this molecule: Cc1onc(-c2c(Cl)cccc2Cl)c1C(=O)N[C@@H]1C(=O)N2[C@@H]1SC(C)(C)[C@@H]2C(=O)O
Response given: F

Challenge: # outcome recorded in this test, key = CO[C@@]1(NC(=O)Cc2cccs2)C(=O)N2C(C(=O)O)=C(COC(N)=O)CS[C@@H]21
Response given: F

Challenge: Assay outcome for CN[C@@H]1[C@H](O)[C@H](NC)[C@H]2O[C@@]3(O)C(=O)C[C@@H](C)O[C@H]3O[C@@H]2[C@H]1O : what was it?
Response given: F

Challenge: Please state the recorded outcome for this molecule: OC(CCN1CCCCC1)(c1ccccc1)C1CCCCC1 (stereo unspecified)
Response given: F

Challenge: Look up the recorded call for CCN(CC)CCCC(C)Nc1c2ccc(Cl)cc2nc2ccc(OC)cc12 (stereo unspecified) in this test.
Response given: T

---

Answer each item with its documented rescue above control.
Assay: rescue of polyQ-huntingtin neuronal dysfunction in worms, whole organism, C. elegans mechanosensory neurons, N-terminal huntingtin (AID 1599)
Conditions: touch response, stronger effect = higher value
Results with a measured potency or affinity are listed apart.
One number for each entry.

CN(C)c1ccc(O)c2c1C[C@H]1C[C@H]3[C@H](N(C)C)C(=O)C(C(N)=O)=C(O)[C@@]3(O)C(=O)C1=C2O	0

Would you be so kind as to report rescue above control for each listed record?
1. Cc1noc(NS(=O)(=O)c2ccc(N)cc2)c1C
2. CC1Cc2ccccc2N1NC(=O)c1ccc(Cl)c(S(N)(=O)=O)c1 (centres undefined)
3. NNCCc1ccccc1
4. Cc1ccc(S(=O)(=O)NC(=O)NN2CCCCCC2)cc1
5. COc1cc2nc(N3CCN(C(=O)c4ccco4)CC3)nc(N)c2cc1OC
6. Cc1cccc(Nc2ccccc2C(=O)O)c1C
7. CSc1ccc2c(c1)N(CCC1CCCCN1C)c1ccccc1S2 (centres undefined)
8. CCN(CC)CC(=O)Nc1c(C)cccc1C

Response given:
1: -13; 2: 19; 3: -3.55; 4: 1.05; 5: -0.41; 6: 14.6; 7: 0; 8: -0.5

# batch: return rescue above control for each of the 3 compounds below
1. CCN(CC)CCOC(=O)c1ccc(N)cc1
2. COC(=O)Nc1nc2ccc(C(=O)c3ccccc3)cc2[nH]1
3. CCN(Cc1ccncc1)C(=O)C(CO)c1ccccc1 (centres undefined)

Response given:
[-15, -9.11, -3.59]

Each compound below has a reported value. Please supply its rescue above control.
1. Nc1nc2ncc(CNc3ccc(C(=O)N[C@@H](CCC(=O)O)C(=O)O)cc3)nc2c(=O)[nH]1
2. NS(=O)(=O)c1cc(C2(O)NC(=O)c3ccccc32)ccc1Cl (centres undefined)
3. O=C1N=C(O)CN1/N=C/c1ccc(-c2ccc([N+](=O)[O-])cc2)o1
4. CC(C)[N+](C)(CCOC(=O)C1c2ccccc2Oc2ccccc21)C(C)C
5. O=c1[nH]cc(F)c(=O)[nH]1
6. Clc1ccc2c(c1)C(N1CCNCC1)=Nc1ccccc1O2

Response given:
1. -0.86
2. -4.25
3. -1.39
4. 2.24
5. -13.1
6. 6.68

---

Experiment: activators of macrophage pro-inflammatory response, cell-based, murine, luminescence (AID 652131)
Settings: murine macrophage pro-inflammatory reporter, stronger effect = higher value
Category key, based on recorded z-score: bin 0: < -0.4; bin 1: ≥ -0.4 and < 0.4; bin 2: ≥ 0.4

Completed entries (count: 9):
Oc1[nH]c2ccccc2c1C=Nc1ccc(-n2cncn2)cc1	bin 2
CNC(=O)c1cc(-c2ccc(F)cc2)cc(-c2ccc(S(=O)(=O)N3CCCC3)cc2)c1N	bin 1
CNC(=O)c1sc(-n2cnc3cc(OC)c(OC)cc32)cc1OCc1ccccc1C(F)(F)F	bin 0
Nc1nccc(-c2c(-c3ccc(F)cc3)ncn2C2CCC(O)CC2)n1 (stereo not given)	bin 2
CN(C)CCCn1c(-c2nonc2N)nc2cnccc21	bin 1
CC(C)(C)c1ccc(Oc2nccc(-c3c(-c4ccc(F)cc4)ncn3C3CCNCC3)n2)cc1	bin 0
COc1cc(N2CCN(C(C)C)CC2)ccc1Nc1nc(Nc2cccc3ncccc23)c2cc[nH]c2n1	bin 0
CN1CCN(C(=O)c2ccc(NC(=O)Nc3ccc(N(C)c4ccnc(Nc5ccc(CS(C)(=O)=O)cc5)n4)cc3)cc2)CC1	bin 2
O=C(Nc1n[nH]c2cc(-c3cc(F)ccc3F)ccc12)C1CC1	bin 1

Query molecule follows.
Challenge: Which bin, given its z-score, does O=C(O)c1ccc(Oc2nccc(-c3c(-c4ccc(F)cc4)ncn3C3CCNCC3)n2)cc1 occupy?
Response given: bin 2

---

Experiment: IRF3 reporter activation in THP-1 macrophages, cell-based, PMA-stimulated THP-1, luminescence (AID 1053176)
Conditions: PMA-differentiated THP-1, IRF3 reporter luminescence; stronger effect = higher value
Give measured fraction signal for each item. Keep answers brief.
Give bare numbers.

For every listed record, write down its fraction signal.
1. COc1cccc(-n2ncc3c(N/N=C/c4cccc(F)c4)ncnc32)c1
2. C[C@@H](Oc1cc(-n2cnc3ccc(OCC4CCN(C)CC4)cc32)sc1C(N)=O)c1ccccc1Cl
3. CC(=O)NC(Cc1ccc(OP(=O)(O)O)cc1)C(=O)NC1CCC(=O)N2CCCC(C(=O)NCc3ccccc3)N2C1=O (stereo not given)
4. Oc1[nH]c2ccccc2c1C=Nc1ccc(-n2cncn2)cc1

Response given:
1. 0.0035
2. -0.009
3. -0.0115
4. -0.0045

I would be grateful if you could provide fraction signal for each of the following entries.
1. CCS(=O)(=O)c1ccc(OC)c(Nc2ncc(-c3ccccc3Cl)o2)c1
2. Cn1cc(C2=C(c3cn(CCN)c4ccccc34)C(=O)NC2=O)c2ccccc21
3. N#CCn1c(=O)c(Oc2ccc(F)cc2F)cc2cnc(NC3CCOCC3)nc21
4. NC(=O)CCc1ccccc1Oc1nccc(-c2c(-c3ccc(F)cc3)ncn2C2CCNCC2)n1
5. COc1ccccc1CN=C1NC(=O)C(=Cc2ccc3ncccc3c2)S1
6. Cn1cc(C2=C(c3ccsc3)C(=O)NC2=O)c2ccccc21

Response given:
0.0065
0.0015
-0.007
-0.0055
-0.0025
-0.0155

---

Test: suppressors of polyQ aggregation in yeast, 75Q-TubU reporter (AID 1593)
Conditions: Yeast 75Q polyglutamine aggregation reporter
measured.parameter: score
One number for each entry.

Below are 8 compounds. Give each one its score.
1. O=C(CCCN1CC=C(n2c(=O)[nH]c3ccccc32)CC1)c1ccc(F)cc1
2. COc1ccccc1OCC(O)COC(N)=O (configuration not stated)
3. NS(=O)(=O)c1cc2c(cc1C(F)(F)F)NC(Cc1ccccc1)NS2(=O)=O (configuration not stated)
4. CCn1cc(C(=O)O)c(=O)c2cc(F)c(N3CCNCC3)cc21
5. OC(Cn1cncn1)(Cn1cncn1)c1ccc(F)cc1F
6. NNCCc1ccccc1
7. Cn1cnc([N+](=O)[O-])c1Sc1ncnc2nc[nH]c12
8. NC12CC3CC(CC(C3)C1)C2

Response given:
1.12
1.41
1.25
0.92
0.67
0.97
0.86
1.77

For the 4 compounds below, give their score values.
1. CN1C(C(=O)Nc2ccccn2)=C(O)c2ccccc2S1(=O)=O
2. CC1COc2c(N3CCN(C)CC3)c(F)cc3c(=O)c(C(=O)O)cn1c23 (configuration not stated)
3. CN=C(NC#N)NCCSCc1nc[nH]c1C
4. Nc1nc(N)c2nc(-c3ccccc3)c(N)nc2n1

Response given:
[0.27, 1.04, 1.08, 1.58]

---

Please go through the items and note down their log fold change Tl+ flux.
System: R275C/Slo1WT/beta2
Test: modulators of BK channel variants, profiling panel, selectivity assay, cell-based, U2OS BacMam, thallium flux, beta subunits (AID 1259406);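 further: initial slope of Thallos dye fluorescence rise after thallium is added; log ratio against the mean of 0.3% DMSO vehicle wells on the same plate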
Conditions: at 30 µM
Give bare numbers.

Solved cases below.
CC(C)Oc1ccc2c(=O)c(-c3ccccc3)coc2c1	0.013
O=C1[C@H](CC[C@H](O)c2ccc(F)cc2)[C@@H](c2ccc(O)cc2)N1c1ccc(F)cc1	0.0256
Oc1c(Cl)cc(Cl)c2cccnc12	0.19
CC(COc1ccccc1)N(CCCl)Cc1ccccc1 (stereo unspecified)	-0.0106
CC1Cc2ccccc2N1NC(=O)c1ccc(Cl)c(S(N)(=O)=O)c1 (stereo unspecified)	-0.000687

Respectfully, I request log fold change Tl+ flux for each entry included below.
1. CCCNC(=O)NS(=O)(=O)c1ccc(Cl)cc1
2. C[C@@H]1C[C@H]2[C@@H]3CCC4=CC(=O)C=C[C@]4(C)[C@@]3(F)[C@@H](O)C[C@]2(C)[C@@]1(O)C(=O)CO
3. CC(C)C(=O)Nc1ccc([N+](=O)[O-])c(C(F)(F)F)c1
4. CC1(C)O[C@@H]2[C@@H](CO[C@@]3(COS(N)(=O)=O)OC(C)(C)O[C@@H]23)O1
5. C=C(CC)C(=O)c1ccc(OCC(=O)O)c(Cl)c1Cl
6. Nc1ccc(S(=O)(=O)c2ccc(N)cc2)cc1

Response given:
1: -0.0244; 2: 0.0456; 3: -0.0286; 4: 0.00527; 5: 0.0108; 6: -0.0232

Just for reference, PubChem BioAssay is where these values come from.
